Data origin: ChEMBL document CHEMBL3431459

Here the recorded pIC50 is given for each entry.
- experimental.target: Carnitine O-palmitoyltransferase 1, liver isoform (Rattus norvegicus)
- Sequence (P32198 whole entry, canonical isoform): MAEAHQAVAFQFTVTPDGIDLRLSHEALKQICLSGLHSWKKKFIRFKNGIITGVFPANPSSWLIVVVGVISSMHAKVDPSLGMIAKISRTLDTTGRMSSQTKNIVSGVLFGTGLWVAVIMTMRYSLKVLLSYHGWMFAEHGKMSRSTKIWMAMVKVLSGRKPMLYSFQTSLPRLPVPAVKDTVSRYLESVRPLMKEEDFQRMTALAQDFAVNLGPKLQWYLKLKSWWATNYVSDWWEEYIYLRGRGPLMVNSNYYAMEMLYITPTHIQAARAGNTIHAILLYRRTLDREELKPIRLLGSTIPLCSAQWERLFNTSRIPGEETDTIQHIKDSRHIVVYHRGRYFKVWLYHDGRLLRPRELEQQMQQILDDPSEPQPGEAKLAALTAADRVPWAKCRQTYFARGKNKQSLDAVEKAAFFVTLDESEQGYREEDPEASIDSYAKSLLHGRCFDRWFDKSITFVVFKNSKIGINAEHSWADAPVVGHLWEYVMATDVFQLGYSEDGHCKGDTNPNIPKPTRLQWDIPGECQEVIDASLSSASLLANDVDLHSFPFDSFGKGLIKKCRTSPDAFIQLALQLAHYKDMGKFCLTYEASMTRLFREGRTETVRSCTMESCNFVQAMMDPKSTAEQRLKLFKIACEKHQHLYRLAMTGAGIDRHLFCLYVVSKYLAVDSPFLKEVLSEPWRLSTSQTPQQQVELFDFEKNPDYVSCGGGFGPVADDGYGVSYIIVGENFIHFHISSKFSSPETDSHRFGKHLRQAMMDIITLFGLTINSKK
- protocol: SUPPLEMENTARY: Inhibition of Carnitine palmitoyltransferase 1, liver isoform
Quick note: pIC50 values are minus log10 of concentrations in mol/L.

Before answering, review these 8 worked examples.
COc1ccc(Cl)cc1S(=O)(=O)N1CCOc2ccc(C(=O)Nc3ccc(CCC(=O)O)cc3)cc21: 6.98
COc1ccc(Cl)cc1S(=O)(=O)c1c2cc(C(=O)Nc3ccc(C(=O)O)cc3)ccc2nn1C: 7.25
O=C(O)COc1cccc(-c2noc([C@H]3CCCCN3C(=O)COc3ccccc3)n2)c1: 6.23
CCNC(=O)Nc1cccc(-c2n[nH]c([C@H]3CCCCN3C(=O)COc3ccccc3)n2)c1: 6.09
O=C(COc1ccccc1)N1CCCC[C@@H]1c1noc(-c2cnnc3ccccc23)n1: 6.87
CN(C)C(=O)c1ccc(-c2noc(C3C4CC4CN3C(=O)COc3ccccc3)n2)cc1 (centres undefined): 5.96
O=C(COc1ccccc1)N1CCCC[C@@H]1c1nc(-c2cccc(F)c2)n[nH]1: 6.60
Cc1cc(-c2noc([C@H]3CCCCN3C(=O)COc3ccccc3)n2)no1: 6.21

Okay, next one:
// query For the compound Cc1cc(C)cc(S(=O)(=O)N2CCc3ccc(C(=O)Nc4ccc(CC(=O)O)cc4)cc32)c1 , what pIC50 is on record?
// result 6.87

----------
- protocol: SUPPLEMENTARY: Lipophilicity (log D) Determination by high-throughput shake-flask
- Format: physicochemical
- test.settings: octanol/water
Satisfied if logD is below 3. Not satisfied if not; exact matches included in Not satisfied.

O=C(COc1ccccc1)N1CCCC[C@@H]1c1nc(-c2ccc(-c3cnc[nH]3)cc2)no1: Satisfied
O=C(COc1ccccc1)N1CCCC[C@@H]1c1noc(-c2ccc3cnccc3n2)n1: Satisfied
O=C(COc1ccccc1)N1CCCC[C@@H]1c1nc(-c2ccc3nccn3c2)no1: Satisfied
O=C(O)c1ccc(C(=O)Nc2nn(Cc3ccc(OC(F)F)cc3)c3ccc(F)cc23)cc1: Satisfied
O=C([C@H]1CCCCN1C(=O)COc1ccccc1)N1Cc2cc(F)c(N3CCOCC3)cc2C1: Satisfied

// query Take the compound COc1ccc(Cl)cc1S(=O)(=O)N1COCc2ccc(C(=O)Nc3nc(CC(=O)O)cs3)cc21 and say whether its logD is less than 3.
// result Satisfied

// query Take the compound CCn1c(C)nc(Cl)c1-c1noc([C@H]2CCCCN2C(=O)COc2ccccc2)n1 and say whether its logD is less than 3.
// result Not satisfied

// query Take the compound O=C(COc1ccccc1)N1CCC(n2c(COc3ccccc3)nc3cc(F)ccc32)CC1 and say whether its logD is less than 3.
// result Not satisfied

// query Take the compound O=C(COc1ccccc1)N1CCCC[C@@H]1c1noc(-c2ccc3ncsc3c2)n1 and say whether its logD is less than 3.
// result Not satisfied

----------
- experimental.target: Carnitine O-palmitoyltransferase 2, mitochondrial (Rattus norvegicus, UniProt P18886)
- Sequence (P18886 whole entry): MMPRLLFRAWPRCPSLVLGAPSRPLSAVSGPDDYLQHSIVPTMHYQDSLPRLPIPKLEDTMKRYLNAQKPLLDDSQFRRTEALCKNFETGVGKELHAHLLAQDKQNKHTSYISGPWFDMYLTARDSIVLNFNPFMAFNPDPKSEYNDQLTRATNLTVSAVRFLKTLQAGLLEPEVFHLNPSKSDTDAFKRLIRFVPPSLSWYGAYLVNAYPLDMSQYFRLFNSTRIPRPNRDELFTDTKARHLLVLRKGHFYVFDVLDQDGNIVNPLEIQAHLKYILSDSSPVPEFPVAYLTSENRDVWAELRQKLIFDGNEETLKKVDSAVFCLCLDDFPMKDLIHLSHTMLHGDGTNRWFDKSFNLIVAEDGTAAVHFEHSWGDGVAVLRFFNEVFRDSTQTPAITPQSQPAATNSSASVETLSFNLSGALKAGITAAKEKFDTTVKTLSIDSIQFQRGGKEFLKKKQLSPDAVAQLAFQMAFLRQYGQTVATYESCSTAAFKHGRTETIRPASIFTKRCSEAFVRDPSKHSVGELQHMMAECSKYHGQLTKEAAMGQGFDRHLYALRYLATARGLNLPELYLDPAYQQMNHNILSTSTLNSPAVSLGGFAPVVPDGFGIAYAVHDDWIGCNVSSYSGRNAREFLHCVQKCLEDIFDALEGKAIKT
pIC50: −log10 of the molar value.
Here the recorded pIC50 is given for each entry.

Before answering, review these 5 worked examples.
COc1ccc(Cl)cc1S(=O)(=O)N1CC(C(=O)O)Oc2ccc(C(=O)Nc3ccccc3F)cc21 (stereo not drawn): < 4.00
CC(=O)Nc1cc(F)cc(-c2noc([C@H]3CCCCN3C(=O)COc3ccccc3)n2)c1: < 4.00
CC(=O)Nc1cc(-c2n[nH]c([C@H]3CCCCN3C(=O)COc3ccccc3)n2)ccc1F: < 4.00
N#Cc1cccc(-c2n[nH]c([C@H]3CCCCN3C(=O)COc3ccccc3)n2)c1: 4.47
CCCN(c1cc(C(=O)Nc2ncc(CC(=O)O)s2)cc2c1OCO2)S(=O)(=O)c1cc(Cl)ccc1OC: < 4.00

// query For the compound COc1ccc(C)cc1S(=O)(=O)n1ccc2ccc(C(=O)Nc3ccc(CC(=O)O)cc3)cc21 , what pIC50 is on record?
// result < 4.00

// query For the compound COc1ccc(Cl)cc1CN1C(=O)OC(C)(C)c2ccc(C(=O)Nc3nccs3)cc21 , what pIC50 is on record?
// result < 4.00

// query For the compound NC(=O)c1cccc(-c2n[nH]c([C@H]3CCCCN3C(=O)COc3ccccc3)n2)c1 , what pIC50 is on record?
// result < 4.00

// query For the compound Cc1cc(C)cc(S(=O)(=O)c2n[nH]c3ccc(C(=O)Nc4ccccc4)cc23)c1 , what pIC50 is on record?
// result < 4.00

// query For the compound COc1ccc(Cl)cc1S(=O)(=O)N1CCOc2c(Cl)cc(C(=O)Nc3ncc(CC(=O)O)s3)cc21 , what pIC50 is on record?
// result < 4.00

// query For the compound COc1ccc(Cl)cc1S(=O)(=O)c1cn(CC(N)=O)c2ccc(C(=O)Nc3ccccc3)cc12 , what pIC50 is on record?
// result < 4.00

// query For the compound O=C(COc1ccccc1)N1CCCC[C@@H]1c1noc(-c2ccc3cccnc3n2)n1 , what pIC50 is on record?
// result < 4.00

// query For the compound COc1ccc(Cl)cc1CN1C(=O)OC(C)(C)c2ccc(C(=O)Nc3ccc(C(=O)O)c(Cl)c3)cc21 , what pIC50 is on record?
// result 4.62

// query For the compound O=C([C@H]1CCCCN1C(=O)COc1ccccc1)N1CCN(c2cccc(Cl)c2)CC1 , what pIC50 is on record?
// result 6.54

----------
- experimental.target: Carnitine O-palmitoyltransferase 1, muscle isoform (Homo sapiens, UniProt Q92523)
- Sequence (Q92523 whole entry): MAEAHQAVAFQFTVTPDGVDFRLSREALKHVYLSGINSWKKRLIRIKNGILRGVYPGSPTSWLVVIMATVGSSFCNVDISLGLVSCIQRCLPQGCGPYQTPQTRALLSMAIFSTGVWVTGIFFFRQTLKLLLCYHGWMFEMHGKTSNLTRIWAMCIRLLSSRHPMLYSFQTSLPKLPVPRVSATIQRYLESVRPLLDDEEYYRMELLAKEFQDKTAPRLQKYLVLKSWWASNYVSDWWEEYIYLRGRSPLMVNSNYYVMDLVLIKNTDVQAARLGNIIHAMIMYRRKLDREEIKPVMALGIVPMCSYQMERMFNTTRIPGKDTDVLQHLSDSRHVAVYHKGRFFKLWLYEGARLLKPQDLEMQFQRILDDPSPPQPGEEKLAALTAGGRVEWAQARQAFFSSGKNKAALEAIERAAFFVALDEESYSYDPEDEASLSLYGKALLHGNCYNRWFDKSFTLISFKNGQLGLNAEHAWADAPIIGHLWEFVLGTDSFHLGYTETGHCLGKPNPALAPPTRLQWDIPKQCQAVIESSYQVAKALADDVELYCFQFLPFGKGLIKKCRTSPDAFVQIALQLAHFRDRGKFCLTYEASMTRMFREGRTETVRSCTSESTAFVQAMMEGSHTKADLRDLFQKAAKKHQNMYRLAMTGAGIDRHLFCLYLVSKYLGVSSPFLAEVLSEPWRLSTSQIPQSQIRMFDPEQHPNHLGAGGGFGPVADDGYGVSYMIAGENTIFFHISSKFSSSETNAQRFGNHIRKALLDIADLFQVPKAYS
- protocol: SUPPLEMENTARY: Inhibition of Carnitine palmitoyltransferase 1, muscle isoform
quantity.measured: IC50 (µM)
Could you give me the number in µM? Just the number is fine.

COc1ccc(Cl)cc1S(=O)(=O)N1CCc2ccc(C(=O)Nc3ccc(CC(=O)O)cc3)cc21: 2.13
O=C(O)c1ccc(NC(=O)c2ccc(NS(=O)(=O)c3cc(Cl)cc(Cl)c3)s2)cc1: 4.38

// query For the compound O=C(COc1ccccc1)OCc1cc(-c2nc([C@H]3CCCCN3C(=O)COc3ccccc3)cs2)ccn1 , what IC50 is on record?
// result 17.8

// query For the compound COc1ccc(Cl)cc1S(=O)(=O)N1CCCCc2ccc(C(=O)Nc3nc(CC(=O)O)cs3)cc21 , what IC50 is on record?
// result 0.602

// query For the compound COc1ccc(Cl)cc1S(=O)(=O)c1cn(CC(=O)O)c2ccc(C(=O)Nc3ccccc3)cc12 , what IC50 is on record?
// result 11.1

// query For the compound O=C1Cc2cc(-c3noc(C4C5CC5CN4C(=O)COc4ccccc4)n3)ccc2N1 (centres undefined) , what IC50 is on record?
// result 39

// query For the compound NC(=O)c1cccc(-c2noc([C@H]3CCCCN3C(=O)COc3ccccc3)n2)c1 , what IC50 is on record?
// result 72.3

// query For the compound Cc1cccc(S(=O)(=O)N2CCOc3ccc(C(=O)Nc4nc(CC(=O)O)cs4)cc32)c1 , what IC50 is on record?
// result 1.08

// query For the compound Cc1cc(C(=O)Nc2ccc(-c3nnn[nH]3)cc2)nn1Cc1ccc(OC(F)F)cc1 , what IC50 is on record?
// result 6.17

// query For the compound COc1ccc(Cl)cc1CN1C(=O)C(C)(C)c2ccc(C(=O)Nc3nc(CC(=O)O)cs3)cc21 , what IC50 is on record?
// result 0.535
